Assay: Human HepG2 cell viability assay in 384 well format
Type: toxicity, cell-based
Set-up: dose 125 nL, time 70.5 hour; concentration not given beside the values
Details: HepG2 cells, read-out: Inhibition
Here the recorded cytotoxicity at 70.5 h is given for each entry.
READOUT LABEL: cytotoxicity at 70.5 h (%)

* CC(=O)C1(c2ccccc2)CCN(C(=O)c2ccc3nnnn3c2)CC1 | 2.77
* CCOCCCNC(=O)CCSCc1csc(C)n1 | -2.1
* Cc1nc(CN)cc(NCc2ccccc2-n2cncn2)n1 | 25
* Cc1nn(C)cc1S(=O)(=O)N[C@@H]1CCC[C@@H](n2ccnc2)[C@@H]1O | -6.03
* Cc1ncc2c(n1)CN(Cc1nc(-c3cccs3)no1)CC2 | 9.81
* COC(=O)CC(c1cccnc1)c1oc(C)cc(=O)c1O (stereo not given) | -16.7
* Cc1oc(-c2ccsc2)nc1CNCCn1cccn1 | -5.13
* O=S(=O)(C1CC1)N1C[C@@H]2CN(Cc3cccs3)CCO[C@@H]2C1 | 11.2
* CO[C@@H]1CC[C@@H](NS(=O)(=O)c2cn(C)nc2C)[C@H]1O | -1.72
* COc1cn(-c2ccccc2)nc1C(=O)NCCN1CCCC(C)C1 (stereo not given) | -7.85
* Cc1ccc(-n2c(COCC(=O)O)nc3c(C)cccc32)nc1 | -4.5
* c1cc(CCN2CCCC2CN2CCCC2)ccn1 (stereo not given) | 30
* CC(C)(C)n1cc(CNC2CCN(C(=O)c3ccncc3)CC2)cn1 | -1.24
* CC(C)C(=O)NS(=O)(=O)c1ccc(C#N)cc1C(F)(F)F | -2.54
* CC(=O)N[C@@H]1Cc2ccccc2[C@H]1Nc1nnc(C2CC2)o1 | -7.5
* CC(=O)N(C)c1nc(CN2CCN(Cc3nccn3C)CC2)cs1 | 10.2
* COc1ccccc1CCN(C)C(=O)NC(C)c1nncn1C (stereo not given) | -4.33
* COCCN1CCC2(C1)c1ccccc1S(=O)(=O)N2Cc1ccccc1 (stereo not given) | 1.99
* Cc1ccc(N2CC3(CCN(Cc4nccn4C)C3)CC2=O)s1 (stereo not given) | -14.5
* CN(C)C(=O)[C@@H]1CCO[C@@H]2CCN(CCc3ccccc3)C[C@@H]21 | 1.43
* CCCNC(=O)CCC(=O)N1CCC(c2noc3cc(F)ccc23)CC1 | -8.21
* CCn1c(CN2CCCC2)nnc1C1CCN(Cc2ccncc2)CC1 | 19.4
* Cc1ccc2nc(C3CCCN3Cc3cccc(CCN)c3)[nH]c2c1 (stereo not given) | -4.63
* Cc1c[nH]c(C2CCCN(C(=O)CCc3c(C)n[nH]c3C)C2)n1 (stereo not given) | -2.32
* CNC(=O)c1cc2c(nc1NCC(C)C)CCN(c1ncccn1)CC2 | 4.12
* O=C(NCCc1coc(-c2ccc(F)cc2)n1)NCC1CCOC1 (stereo not given) | 20.9
* O=C(c1ccc(COc2ccccc2Cl)o1)N1N=CCC1(O)C(F)(F)F (stereo not given) | -4.75
* COCC(O)CN(C)C(=O)NCc1ccc(-c2ccn[nH]2)cc1 (stereo not given) | -85.9
* CCOc1ccc(C2CC(=O)NCc3nc(N)sc32)cc1CO (stereo not given) | -6.2
* Cc1cccc2c1NC1(CCOCC1)NC2=O | -26.4
* CC(C)N(Cc1nccn1C)C(=O)c1cc(Cl)c[nH]c1=O | -6.81
* CC[C@@H](Cn1ncc2ccccc2c1=O)NC(=O)c1cnccn1 | -4.08
* Cc1ccc(N2CCCC(N(C)Cc3nnc(C4CC4)o3)C2)nn1 (stereo not given) | -5.49
* OC(COc1ccc(F)cc1)CN1CCC(Cn2cccn2)CC1 (stereo not given) | 10.3
* Cc1noc(CNc2ccc(OC(F)F)cc2OC(F)F)n1 | -2.77
